Each recorded value in this set is attributed to ChEMBL document CHEMBL1201862.

system: MCF7; test: NCI tumour cell line growth inhibition, 48 h
The source made the active and inactive calls. Rule as the data show it: active = GI50 up to about 1.1 µM and inactive = higher.
ENDPOINT_NAME: GI50

Can you look up the measured GI50 of O=C1c2ccccc2C(=O)c2c(NC(=O)c3ccc4c5c(ncnc35)-c3ccccc3C4=O)cccc21 for me?
> 100 µM (inactive)

Please report the recorded GI50 for O=C1CC2CC(CC3(CO3)C2)C1F (stereo unspecified) .
> 100 µM (inactive)

Item under review: Cc1ccc(N/C(=C(/C(Cl)=C(Cl)Cl)[N+](=O)[O-])n2nnc3ccccc32)cc1 . Reported GI50?
29.1 µM (inactive)

// returns reported GI50 for input O=c1oc2ccccc2n1CCCn1c(=O)oc2ccccc21
> 100 µM (inactive)

For Cc1cccc(/C=N/NC(=S)NCc2ccccn2)n1 , what is its reported GI50?
31.8 µM (inactive)

Which GI50 is listed for O=C(O)/C=C/c1ccc2c(c1)CC1(Cc3ccccc3C1)C2 ?
43.6 µM (inactive)
